// reported TGI per item
system: HS 578T breast; assay: NCI tumour cell line growth inhibition, 48 h
Write the value in µM as a bare number.

[[record]]
smiles_entry = "COc1ccc(-c2nc(/C=N/Nc3cc(C)nc4ccc(Br)cc34)c(C)o2)cc1"
assay_system = "HS 578T breast"
endpoint = "TGI"
observed_value = 4.1


Shift focus to the following entry.
**Q:** State the recorded TGI for this entry: COc1ccccc1-c1nccc(COc2ccccc2C[C@@H](Oc2ncnc3sc(-c4ccc(F)cc4)c(-c4ccc(OCCN5CCN(C)CC5)c(Cl)c4C)c23)C(=O)O)n1
**A:** 3.29

###

test system: NCI-H226 lung; test: NCI tumour cell line growth inhibition, 48 h
Measured TGI by item

[[record]]
compound = "CCCC(=O)Nc1cn(COC)c(C(=O)N2C[C@H]3C[C@@]34C2=CC(=O)c2[nH]cc(C)c24)n1"
observed_value = "39.4 µM"

[[record]]
compound = "CCn1c(-c2nonc2N)nc2c(C#CC(C)(C)O)ncc(OC[C@@H]3CCCN3)c21"
observed_value = "> 24 µM"

[[record]]
compound = "COC12C=C/C(=C(/C(=O)OCc3csc(SC)n3)C(=O)CCCCCCCCC3(OC)C=C/C(=C(/C(=O)OCc4cnc(SC)s4)C(=O)CCCCCCCC1)O3)O2 (stereo not given)"
observed_value = "17.1 µM"

[[record]]
compound = "CC(=O)Nc1ccc2c(c1)nc1c3ccccc3ccn21"
observed_value = "> 100 µM"

[[record]]
compound = "O=C(NCCCn1ccnc1[N+](=O)[O-])C(=O)NCCCn1ccnc1[N+](=O)[O-]"
observed_value = "> 100 µM"


**Q:** Recorded TGI for Cc1cc(S(N)(=O)=O)c(S/C(=N\NS(=O)(=O)c2ccccc2)c2ccc(Cl)c(Cl)c2)cc1Cl with NCI-H226 lung, please?
**A:** > 100 µM

**Q:** Hello, I am looking for reported TGI with NCI-H226 lung for CC1=NN(c2cccc(Cl)c2)C2(C1=Cc1ccc(N(C)C)cc1)C(Cl)C(=O)N2c1nc2ccccc2s1 (stereo not given) . Could you help?
**A:** > 100 µM

**Q:** Hello, I am looking for reported TGI with NCI-H226 lung for O=C1c2cccnc2C(=O)c2c1nc1ccccc1c2-c1ccc2c3c(nc4ccccc42)C(=O)c2cccnc2-c13 . Could you help?
**A:** 7.55 µM

**Q:** # get_value(readout= TGI, system= NCI-H226 lung) for Cc1cc2c(-c3nc4ccccn4c3NC34CC5CC(CC(C5)C3)C4)c(O)c(O)cc2c(O)c1-c1c(C)cc2c(-c3nc4ccccn4c3NC34CC5CC(CC(C5)C3)C4)c(O)c(O)cc2c1O
**A:** 5.98 µM

**Q:** Can you look up TGI on NCI-H226 lung for Nc1nc(Cl)cc(NCCCCCCNc2cc(Cl)nc(N)n2)n1 ?
**A:** > 100 µM

**Q:** Give the reported TGI for Cc1nc2cc(Nc3nc(Nc4ccc(F)cc4)nc(-c4ccc(Cl)cc4)n3)ccc2n1Cc1ccccc1 (system: NCI-H226 lung).
**A:** 37.2 µM

**Q:** Look up TGI with NCI-H226 lung for this compound: COc1cc2c3c(c1OC)/C(=N/OS(=O)(=O)c1ccc(C)cc1)CC3N(S(=O)(=O)c1ccc(C)cc1)CC2 (stereo not given)
**A:** > 100 µM

**Q:** Find the measured TGI: item C1=CC=C2NCCSCCNC3=CC=CC=CC3=NCCSCCN=C2C=C1 , target or system NCI-H226 lung.
**A:** > 100 µM

**Q:** Please state recorded TGI (tested on NCI-H226 lung) of Cn1c2ccccc2c2c3c(=O)[nH][nH]c(=O)c3c3c4ccccc4n(C)c3c21
**A:** > 100 µM

**Q:** Find the measured TGI: item C[N+]1(CCCCN2c3ccccc3Sc3cc(N=[N+]=[N-])ccc32)CCN(C(=O)CCNC(=O)Cc2ccc(C(=O)c3ccccc3)cc2)CC1 , target or system NCI-H226 lung.
**A:** > 85.7 µM

**Q:** Request body: readout TGI, system NCI-H226 lung, query Oc1ccc(C[C@@H]2CN[C@H](Cc3ccc(O)c(Br)c3)CN2)cc1 . Return the value.
**A:** > 100 µM

**Q:** # value lookup — system NCI-H226 lung, readout TGI, item O=C1Cc2ccccc2CCc2ccccc21
**A:** > 100 µM

**Q:** Which measured TGI belongs to COc1ccc(-c2nn3ncccc3c2-c2ccnc(Nc3cccc(C(F)(F)F)c3)n2)cc1 , tested on NCI-H226 lung?
**A:** > 25 µM

**Q:** Item: C/C(N=NC(=S)N1CCCCCC1)=C1\C=CC=CN1O Test system: NCI-H226 lung Read-out: TGI Value: ?
**A:** > 90.3 µM

**Q:** Record lookup: for NCI-H226 lung, what TGI belongs to O/N=C/[C@H]1COC2(CCCCC2)O1 ?
**A:** > 100 µM

###

Listing of recorded TGI by entry.
test system: DU-145 prostate; assay: NCI tumour cell line growth inhibition, 48 h

Solved entries:
[[record]]
compound = "O/N=C/[C@H]1COC2(CCCCC2)O1"
observed_value = "> 100 µM"

[[record]]
compound = "C#CCn1cc(C=C2C(=O)NC(=S)NC2=O)c2cc(Cl)ccc21"
observed_value = "3.22 µM"

[[record]]
compound = "COc1ccc(C2NC(=S)NC3=C2COc2ccc(F)cc23)cc1OC (configuration not stated)"
observed_value = "> 100 µM"


Read the next record carefully.
**Q:** // lookup TGI for O=C(O)Cn1c[n+](NC(=O)Cc2ccccc2)cn1
**A:** > 10 µM

###

Consider the following compounds and their measured TGI readings.
system: TK-10 renal; test: NCI tumour cell line growth inhibition, 48 h

[[record]]
compound = "CC1OC2OC3C(OCC(O)C3O)OC(=O)[C@]34CCC(C)(C)CC3C3=CCC5[C@@]6(C)C[C@H](O)[C@H](OC7OC(CO)C(O)C(O)C7OC7OC(COC(=O)CC(C)(O)CC(=O)OC1C(OC1OC(CO)C(O)C(O)C1O)C2O)C(O)C(O)C7O)[C@@](C)(CO)C6CC[C@@]5(C)[C@]3(C)CC4 (stereo not given in full)"
assay_system = "TK-10 renal"
endpoint = "TGI"
observed_value = "7.92 µM"

[[record]]
compound = "C=C(C[N+](C)(C)C)N/N=C/c1oc(-c2ccc(OC)c(OC)c2)c(-c2ccc(OC)c(OC)c2)c1[N+](=O)[O-]"
assay_system = "TK-10 renal"
endpoint = "TGI"
observed_value = "50.6 µM"

[[record]]
compound = "C=CCN(N=O)C(=O)ON1C(=O)CCC1=O"
assay_system = "TK-10 renal"
endpoint = "TGI"
observed_value = "> 100 µM"


**Q:** Which TGI is reported for this compound? COC(=O)c1ccc2cc(O)ccc2c1
**A:** > 100 µM

**Q:** Given Cc1ccc(NCCNCC(O)CO)c2c(=O)c3ccccc3sc12 (stereo not given) , state its recorded TGI.
**A:** 3.1 µM

**Q:** # query: TGI of entry CC(C)(C)c1cc(C(=O)O)c(C(c2ccccc2)c2ccccc2C(=O)O)c(C(=O)O)c1 (stereo not given)
**A:** > 100 µM

**Q:** Consider the compound NC(=O)c1ncn(C2OC(CO)C(O)C2O)c1NC(=S)NC(=O)c1ccccc1 (stereo not given) and give its measured TGI.
**A:** > 100 µM

**Q:** Which TGI reading was recorded for the compound CO[C@H](C)[C@](O)(C(=O)OCC1=CCN2CC[C@@H](O)[C@H]12)C(C)C ?
**A:** > 100 µM

**Q:** // TGI lookup, key: Cc1cc(N(CCC#N)CCC#N)ccc1/C=C/C(=O)Nc1ccccc1Cl
**A:** > 100 µM

**Q:** Would you kindly share the measured TGI for COc1ccc(-c2nn(-c3cccc(Cl)c3)cc2/C=C2\C(=N)N(c3ccccc3)N=C2N)cc1 ?
**A:** > 95.8 µM

**Q:** # query: TGI of entry O=C(O)Cn1c[n+](NC(=O)Cc2ccccc2)cn1
**A:** > 10 µM

**Q:** Give its TGI value. Item: Cc1ccc(N2C(=O)/C(=C3\Sc4c(nc(C)n(C)c4=O)N3c3ccccc3)SC2=S)cc1
**A:** > 100 µM

###

Reported TGI by item:
test system: MOLT-4 leukemia; assay: NCI tumour cell line growth inhibition, 48 h

Study these solved cases before continuing.
[[record]]
molecule = "Cc1nn(C(=O)c2ccccc2O)c2c1C(c1ccc([N+](=O)[O-])cc1)SC(N)=N2 (stereo unspecified)"
observed_value = "> 10 µM"

[[record]]
molecule = "NC(=O)c1ncn(C2OC(CO)C(O)C2O)c1NC(=S)NC(=O)c1ccccc1 (stereo unspecified)"
observed_value = "> 100 µM"

[[record]]
molecule = "COc1cc(/C=C2\\C(=O)Nc3ccc(Br)cc32)cc(OC)c1OC"
observed_value = "> 100 µM"

[[record]]
molecule = "COc1cc(/C=C2/C(=O)N(C(=O)c3ccccc3O)N=C2C)ccc1O"
observed_value = "> 100 µM"

[[record]]
molecule = "O=c1cccc2n1CC1CNCC2C1 (stereo unspecified)"
observed_value = "> 100 µM"


**Q:** Data request, read-out TGI, for CCOc1ccccc1NC(=O)CCC(=O)NN
**A:** > 100 µM
